Taken from ChEMBL document CHEMBL1154750.

- tested target: Neuraminidase (Influenza A virus, UniProt B4URF0)
- Sequence (B4URF0 whole entry): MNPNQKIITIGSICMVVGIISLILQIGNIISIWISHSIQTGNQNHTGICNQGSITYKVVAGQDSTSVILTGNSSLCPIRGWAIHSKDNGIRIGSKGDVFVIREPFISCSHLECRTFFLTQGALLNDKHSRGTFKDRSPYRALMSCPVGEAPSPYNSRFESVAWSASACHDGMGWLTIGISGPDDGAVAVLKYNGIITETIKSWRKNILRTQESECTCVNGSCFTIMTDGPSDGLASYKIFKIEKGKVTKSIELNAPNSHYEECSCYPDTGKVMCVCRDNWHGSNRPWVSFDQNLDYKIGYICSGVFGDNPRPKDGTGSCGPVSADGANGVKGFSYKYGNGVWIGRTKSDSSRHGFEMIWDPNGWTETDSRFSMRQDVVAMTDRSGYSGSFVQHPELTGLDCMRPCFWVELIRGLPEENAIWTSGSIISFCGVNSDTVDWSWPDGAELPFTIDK
- protocol text: Inhibition of Influenza Virus A/Brest/IDT7490/08 (H1N1) neuraminidase
measurement name: IC50 (nM)
Enter your answer as a number in nM; do not include the unit.

Query block: Entry under review: O=C(CCc1ccccc1)C[C@@H]1C[C@@H](c2ccccc2)c2c(cc(/C=C/c3ccccc3)oc2=O)O1 . Reported IC50?
Result block: 1.64

----------
- protocol text: Cytotoxicity against MDCK cells
- Assay type: cell-based, Canis lupus familiaris
- condition summary: dog
measurement name: CC50 (µM)
Enter your answer as a number in µM; do not include the unit.

Query block: Entry under review: O=C(CCc1ccccc1)C[C@@H]1C[C@@H](c2ccccc2)c2c(cc(/C=C/c3ccccc3)oc2=O)O1 . Reported CC50?
Result block: 66.9
